target-entity: NaV1.7 (Homo sapiens)
Construct: expressed in transfected cells; host or cells: Tetracycline-inducible cell line kept under hygromycin and blasticidin selection
Sequence (Q15858 whole entry): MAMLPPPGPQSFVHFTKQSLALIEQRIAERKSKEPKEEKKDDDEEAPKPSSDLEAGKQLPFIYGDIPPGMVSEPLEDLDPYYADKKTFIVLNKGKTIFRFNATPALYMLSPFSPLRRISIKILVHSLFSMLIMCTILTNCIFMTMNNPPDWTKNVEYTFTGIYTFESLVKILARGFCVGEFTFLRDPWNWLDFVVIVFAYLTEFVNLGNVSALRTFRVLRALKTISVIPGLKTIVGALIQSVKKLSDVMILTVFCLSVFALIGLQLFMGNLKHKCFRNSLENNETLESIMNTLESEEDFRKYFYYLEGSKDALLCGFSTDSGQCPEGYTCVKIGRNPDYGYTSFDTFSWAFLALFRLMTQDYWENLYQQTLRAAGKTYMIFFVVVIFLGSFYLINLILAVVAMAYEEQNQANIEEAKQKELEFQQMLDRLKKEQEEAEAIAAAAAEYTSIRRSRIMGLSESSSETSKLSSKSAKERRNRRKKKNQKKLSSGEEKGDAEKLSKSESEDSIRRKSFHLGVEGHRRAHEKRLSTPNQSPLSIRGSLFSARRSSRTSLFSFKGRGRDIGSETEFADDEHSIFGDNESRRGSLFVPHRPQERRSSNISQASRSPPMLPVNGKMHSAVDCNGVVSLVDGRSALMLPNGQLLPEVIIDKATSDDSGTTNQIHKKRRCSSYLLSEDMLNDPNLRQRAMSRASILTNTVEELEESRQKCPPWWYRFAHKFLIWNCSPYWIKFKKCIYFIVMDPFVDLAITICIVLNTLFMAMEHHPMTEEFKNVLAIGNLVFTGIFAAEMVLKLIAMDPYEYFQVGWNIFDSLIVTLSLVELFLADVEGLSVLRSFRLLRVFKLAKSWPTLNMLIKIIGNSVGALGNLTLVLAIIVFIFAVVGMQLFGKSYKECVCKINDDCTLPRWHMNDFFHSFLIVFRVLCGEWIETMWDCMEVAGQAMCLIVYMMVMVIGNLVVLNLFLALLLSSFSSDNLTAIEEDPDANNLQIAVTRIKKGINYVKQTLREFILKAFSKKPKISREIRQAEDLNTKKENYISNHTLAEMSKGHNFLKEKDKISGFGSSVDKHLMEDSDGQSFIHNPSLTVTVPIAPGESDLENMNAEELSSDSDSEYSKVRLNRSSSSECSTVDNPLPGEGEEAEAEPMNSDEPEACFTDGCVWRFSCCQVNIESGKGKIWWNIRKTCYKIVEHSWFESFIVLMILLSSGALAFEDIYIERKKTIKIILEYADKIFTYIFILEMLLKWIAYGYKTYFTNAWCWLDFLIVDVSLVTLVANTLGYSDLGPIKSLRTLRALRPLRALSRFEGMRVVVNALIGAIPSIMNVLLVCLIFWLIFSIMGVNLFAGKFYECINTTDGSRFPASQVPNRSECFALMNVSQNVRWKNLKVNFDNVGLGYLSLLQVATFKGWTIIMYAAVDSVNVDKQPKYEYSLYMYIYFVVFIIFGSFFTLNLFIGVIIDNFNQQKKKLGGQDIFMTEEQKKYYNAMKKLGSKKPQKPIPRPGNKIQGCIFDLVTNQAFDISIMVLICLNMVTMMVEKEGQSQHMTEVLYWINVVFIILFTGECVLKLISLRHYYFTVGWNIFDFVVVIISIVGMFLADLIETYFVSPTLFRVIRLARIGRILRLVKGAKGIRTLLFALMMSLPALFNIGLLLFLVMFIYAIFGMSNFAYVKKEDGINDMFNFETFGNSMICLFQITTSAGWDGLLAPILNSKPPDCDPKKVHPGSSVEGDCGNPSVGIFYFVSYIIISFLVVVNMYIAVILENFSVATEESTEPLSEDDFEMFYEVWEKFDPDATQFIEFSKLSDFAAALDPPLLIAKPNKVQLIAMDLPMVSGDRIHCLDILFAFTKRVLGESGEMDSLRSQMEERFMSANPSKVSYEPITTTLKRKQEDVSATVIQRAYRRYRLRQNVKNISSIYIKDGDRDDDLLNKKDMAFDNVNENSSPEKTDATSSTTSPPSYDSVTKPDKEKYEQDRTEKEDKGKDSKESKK
method-description: Nav1.7 whole cell patch clamp, internal block (intracellular inhibition)
Format: cell-based
measurement-setup: test concentration 10 μM, compound in internal solution, 5 Hz stimulation
readout-name: inhibition at 10 µM

INSERT INTO results (compound, value_reported) VALUES
  ('CCc1cccc[n+]1CC(=O)Nc1c(C)cccc1C.[Br-] [4′A]', '> 75%'),
  ('CCOC(=O)c1ccc[n+](CC(=O)Nc2c(C)cccc2C)c1 [5′A]', '> 75%'),
  ('Cc1cccc(C)c1NC(=O)C[n+]1cccc(-c2ccccc2)c1.[Br-] [1′A]', '> 75%'),
  ('Cc1cccc(C)c1NC(=O)C[n+]1ccccc1-c1ccccc1.[Br-] [2′A]', '> 75%'),
  ('CCc1ccc[n+](CC(=O)Nc2c(C)cccc2C)c1.[Br-] [3′A]', '> 75%');

====

Tested on: artificial lipid membrane
method-description: PAMPA membrane permeability assay
Assay type: in vitro ADME
measurement-setup: pH 7.4 buffer, GIT lipid, 4 hours incubation
Papp at 4 h, 50 uM values, listed per item
readout-name: Papp at 4 h, 50 uM

INSERT INTO assay_data (smiles_data, value_reported) VALUES
  ('CCc1ccc[n+](CC(=O)Nc2c(C)cccc2C)c1.[Br-]', '< 1 ×10⁻⁶ cm/s'),
  ('Cc1cccc(C)c1NC(=O)C[n+]1cccc(-c2ccccc2)c1.[Br-]', '< 1 ×10⁻⁶ cm/s'),
  ('CCc1cccc[n+]1CC(=O)Nc1c(C)cccc1C.[Br-]', '< 1 ×10⁻⁶ cm/s'),
  ('Cc1cccc(C)c1NC(=O)C[n+]1ccccc1-c1ccccc1.[Br-]', '< 1 ×10⁻⁶ cm/s');

Cited source for all entries: patent US10925865B2
